Target under test: A*3301 (Homo sapiens, UniProt P04439, A270S/D185E/E176V/E277Q/E87N/F33T/G231S/H175R/I121M/I218V/I322F/K168Q/K210R/L300P/L318F/M331R/P217A/Q86R/Q94H/R138Q/T323A/T345S/T97I/V358M/Y195H)
Assay overview: biochemical
Assay type: binding
No end group written: not given here.
Measured parameter: IC50

>>> endpoint_result("ALKGLAQSK [Peptide 88.0416]")
"> 20 µM"
>>> endpoint_result("KSCFAMSLIK [Peptide 88.0190]")
"> 20 µM"
>>> endpoint_result("YSVYGTTLEK [Peptide 78.0054]")
"> 20 µM"

----------
Target under test: DRB5*0101 (Homo sapiens, UniProt P01903+Q30154)
Assay overview: biochemical
Experimental parameters: Binding affinity DRB5 *0101
pIC50: −log10 of the molar value. No end group written: not given here.
Each entry below lists one item and its recorded pIC50 value.
Measured parameter: pIC50

>>> endpoint_result("VHEGIRTYFVQFKDD [Peptide 1601.05]")
"< 4.70"
>>> endpoint_result("LKGDANILKCLRYRL [Peptide 1601.26]")
"< 4.70"
>>> endpoint_result("LSQRLNVCQDKILEH [Peptide 1601.21]")
"< 4.70"
>>> endpoint_result("LHLLSNDMCARAYSE [Peptide 68.0140]")
"< 4.70"
>>> endpoint_result("GQVIVCPASVSSNEV [Peptide 90.0016]")
5.06
>>> endpoint_result("VEFMSFLTALKRFLQ [Peptide 89.0015]")
7.72
>>> endpoint_result("GVYYIKDGDTTYYVQ [Peptide 90.0216]")
"< 4.70"
>>> endpoint_result("QAELETAQALFHAQE [Peptide 89.0022]")
5.71
>>> endpoint_result("TGWFEVEAVIERRTG [Peptide 90.0075]")
6.44
>>> endpoint_result("DNDIVDDSEIAYKYA [Peptide 90.0037]")
"< 4.70"
>>> endpoint_result("TPEWIDRLTVLQHSF [Peptide 89.0069]")
"< 4.70"
>>> endpoint_result("GKSYFGMSLISFLQG [Peptide 89.0056]")
"< 4.70"
>>> endpoint_result("TELNTSLQDIEITCV [Peptide 1543.34]")
"< 4.70"
>>> endpoint_result("FIHFLQGAIISFVNS [Peptide 89.0088]")
"< 4.70"
>>> endpoint_result("AYGISFMELVRPFKS [Peptide 89.0060]")
5.52
>>> endpoint_result("VSKLMSQLLNIPETH [Peptide 89.0101]")
"< 4.70"
>>> endpoint_result("LKRFLQGIPKKNCIL [Peptide 89.0016]")
8.26
>>> endpoint_result("IVHLKGDPNSLKCLR [Peptide 90.0255]")
5.59
>>> endpoint_result("IHFLQGAIISFVNSN [Peptide 89.0089]")
"< 4.70"
>>> endpoint_result("DWCIIGMGVTPSVAE [Peptide 89.0096]")
"< 4.70"
>>> endpoint_result("LSGLHGQDLFGIWSK [Peptide 68.0040]")
"< 4.70"
>>> endpoint_result("LKTVKIPNTVQVIQG [Peptide 90.0017]")
"< 4.70"
>>> endpoint_result("CTLVAGEVDYVGLYY [Peptide 90.0252]")
"< 4.70"
>>> endpoint_result("KNCILIHGAPNTGKS [Peptide 89.0055]")
"< 4.70"
>>> endpoint_result("YDPLYCESVHNFTLP [Peptide 68.0041]")
"< 4.70"
>>> endpoint_result("DDRWPYLHSRLVVFT [Peptide 89.0058]")
"< 4.70"
>>> endpoint_result("HQVVPSLVASKTKAF [Peptide 90.0023]")
"< 4.70"
>>> endpoint_result("GQRVPVSHSFPHPLY [Peptide 68.0005]")
"< 4.70"
>>> endpoint_result("TYGVSFMELVRPFKS [Peptide 89.0095]")
5.04
>>> endpoint_result("MNYVVWDSIYYITET [Peptide 90.0214]")
4.74
>>> endpoint_result("GERLEVDTELSPRLQ [Peptide 90.0048]")
"< 4.70"
>>> endpoint_result("NCNSNTTPIVHLKGD [Peptide 1601.08]")
"< 4.70"
>>> endpoint_result("PCHTTKLLHRDSVDS [Peptide 1601.07]")
"< 4.70"
>>> endpoint_result("EDLRTLQQLFLSTLS [Peptide 1543.21]")
"< 4.70"
>>> endpoint_result("KVAMLDDATHTCWTY [Peptide 90.0105]")
"< 4.70"
>>> endpoint_result("PEEFLRPRSLQCVSL [Peptide 68.0015]")
"< 4.70"
>>> endpoint_result("LIRLENAILFTAREH [Peptide 90.0002]")
5.37
>>> endpoint_result("VKFLRYQQIEFVSFL [Peptide 89.0052]")
4.95
>>> endpoint_result("YFKLFLQGTPKHNCL [Peptide 89.0133]")
"< 4.70"
>>> endpoint_result("TTIYNNEEWTLRDTC [Peptide 90.0232]")
"< 4.70"
>>> endpoint_result("LETIYNSQYSNEKWT [Peptide 1601.03]")
6.68
>>> endpoint_result("PHAFPFDKNGNPVYE [Peptide 90.0106]")
"< 4.70"
>>> endpoint_result("TPEWIEQQTVLQHSF [Peptide 89.0104]")
5.26
>>> endpoint_result("HALFTAQEAKQHRDA [Peptide 89.0001]")
5.15
>>> endpoint_result("FQVIELQMALETLNA [Peptide 90.0025]")
"< 4.70"

----------
Target under test: HLA-A1 (A*0101) (Homo sapiens, UniProt P04439, A114D/A174V/A182V/D101N/D185E/E176A/E190D/L180R/Q94H/R68K/S129P/T187R/V100A/V91M/W191G)
Assay overview: biochemical
Type: binding
No end group written: not given here.
# label 1 = IC50 below 1000 nM (exclusive); label 0 = IC50 at/above 1000 nM

>>> assigned_label("EISNYTDIIY [Peptide 9015.0158]")
"label 0"
>>> assigned_label("MWKFDSRLAL [Peptide 1605.17]")
"label 0"
>>> assigned_label("STDLRDHIDY [Peptide 1580.18]")
"label 1"
>>> assigned_label("ISERILSTY [Peptide 1522.03]")
"label 1"
>>> assigned_label("DLADQLIHLY [Peptide 9015.0184]")
"label 1"
>>> assigned_label("ETKLGKAGY [Peptide 9015.0023]")
"label 0"
>>> assigned_label("HMDREKHPEY [Peptide 9018.0007]")
"label 1"
>>> assigned_label("LYDQLIHLY [Peptide 9018.0028]")
"label 1"
>>> assigned_label("EISNYTDTIY [Peptide 9015.0157]")
"label 0"

----------
Each entry below lists one item and its recorded IC50 value.
Target under test: A*3301 (Homo sapiens, UniProt P04439, A270S/D185E/E176V/E277Q/E87N/F33T/G231S/H175R/I121M/I218V/I322F/K168Q/K210R/L300P/L318F/M331R/P217A/Q86R/Q94H/R138Q/T323A/T345S/T97I/V358M/Y195H)
Assay overview: biochemical
Assay type: binding
No end group written: not given here.
Measured parameter: IC50 (nM)

>>> endpoint_result("EFTAFLGAFK [Peptide 88.0167]")
35
>>> endpoint_result("ISYGRKKRR [Peptide 9017.0079]")
1120
>>> endpoint_result("WTYFDTYMR [Peptide 88.0346]")
95
>>> endpoint_result("LTTNIHPAK [Peptide 88.0347]")
575
>>> endpoint_result("FLSALKLFLK [Peptide 1587.38]")
2590
>>> endpoint_result("GQWIQSRCEK [Peptide 88.0166]")
4920
>>> endpoint_result("VLMWKFDSR [Peptide 9017.0066]")
63
>>> endpoint_result("LTALIKPKK [Peptide 9017.0100]")
1110
>>> endpoint_result("MLIEPPKLR [Peptide 88.0366]")
150
>>> endpoint_result("GILRQRRAR [Peptide 9017.0114]")
3190
>>> endpoint_result("FADLTVVYR [Peptide 78.0318]")
310
>>> endpoint_result("ETLNASPYK [Peptide 1589.39]")
4710
>>> endpoint_result("QTRSLTEILK [Peptide 9012.0217]")
19800
>>> endpoint_result("TVWNPPTTAK [Peptide 1556.03]")
1580
>>> endpoint_result("NTKANILYK [Peptide 88.0358]")
693
>>> endpoint_result("HSRIGILRQR [Peptide 9017.0242]")
418
>>> endpoint_result("RLECAIYYK [Peptide 1589.01]")
6550
>>> endpoint_result("GVIVMMLIR [Peptide 88.0376]")
214
>>> endpoint_result("RLECVLMYK [Peptide 1589.12]")
828
>>> endpoint_result("NLQGKLYYK [Peptide 88.0375]")
9.4
>>> endpoint_result("LQGKLYYKFK [Peptide 88.0184]")
16200
>>> endpoint_result("RLIDRIRER [Peptide 9017.0123]")
937
>>> endpoint_result("TALIKPKKR [Peptide 9017.0102]")
774
>>> endpoint_result("LLQAVRIIK [Peptide 9017.0068]")
3020
>>> endpoint_result("FLSQVKIPK [Peptide 1589.05]")
158
>>> endpoint_result("SQTCALYWFR [Peptide 88.0165]")
260
>>> endpoint_result("SFSELVRPFK [Peptide 1587.03]")
24
>>> endpoint_result("DFISFLSYFK [Peptide 88.0188]")
5.7
>>> endpoint_result("ISKQPLPQTR [Peptide 9017.0207]")
2580
>>> endpoint_result("KTTVLFKFK [Peptide 88.0369]")
1400
>>> endpoint_result("KQFLQGVPK [Peptide 88.0390]")
5180
>>> endpoint_result("ATTPIIHLK [Peptide 1589.18]")
11200
>>> endpoint_result("RTEVYQFAFK [Peptide 78.0062]")
9180
>>> endpoint_result("EFVSFLSALK [Peptide 1587.36]")
17
>>> endpoint_result("AILGHIVRPR [Peptide 9017.0226]")
240
